System: A549
method_summary: Antiproliferative activity against human A549 cells assessed as reduction in cell viability incubated for 48 hrs by CCK8 assay
Assay type: functional, cell-based
stated_conditions: A549, 48 h
quantity_name: IC50 (µM)
Write down the numeric answer in µM and omit the unit.

In plain terms, N#C[Se]CCCNC(=O)c1cccnc1 has a documented IC50 of 15.4
